# Test system: transgenic rice Line 29
# protocol-details: Response of rice plants to various herbicides, seed set in greenhouse
# Assay type: in vivo
# assay-setup: post-emergence, 6× rate, 1× g ai/ha: PURSUIT 62.5, CADRE 32, ARSENAL 24, RAPTOR 32, SCEPTER 125, ACCENT 35, CLASSIC 5, AC322,140 20, LONDAX 68
Hi there, I'd appreciate the recorded No. filled seeds/3 panicles for every entry that follows.
Form: value (number only, do not type unit).

Which No. filled seeds/3 panicles value is on record for CC(C)C1(C)N=C(c2nc3ccccc3cc2C(=O)O)NC1=O (stereo not drawn) ? 139

I'd like to know its No. filled seeds/3 panicles. The compound in question is CCOC(=O)c1ccccc1S(=O)(=O)NC(=O)Nc1nc(Cl)cc(OC)n1 5

Which No. filled seeds/3 panicles is listed for COCc1cnc(C2=NC(C)(C(C)C)C(=O)N2)c(C(=O)O)c1 (stereo not drawn) ? 125

Please give the measured No. filled seeds/3 panicles for this compound: COc1cc(OC)nc(NC(=O)NS(=O)(=O)c2ncccc2C(=O)N(C)C)n1 0

For Cc1cnc(C2=NC(=O)C(C)(C(C)C)N2)c(C(=O)O)c1 (stereo not drawn) , what is its reported No. filled seeds/3 panicles? 127

Which value of No. filled seeds/3 panicles has been reported for CC(C)C1(C)N=C(c2ncccc2C(=O)O)NC1=O (stereo not drawn) in the records? 27

# lookup: No. filled seeds/3 panicles of COC(=O)c1ccccc1CS(=O)(=O)NC(=O)Nc1nc(OC)cc(OC)n1 150

Quick one: No. filled seeds/3 panicles of CCc1cnc(C2=NC(C)(C(C)C)C(=O)N2)c(C(=O)O)c1 (stereo not drawn) ? 141

Given COc1cc(OC)nc(NC(=O)NS(=O)(=O)Nc2ccccc2C(=O)C2CC2)n1 , state its recorded No. filled seeds/3 panicles. 134

----------
# Test system: rice plants (transgenic Lines 26 and 29; Nt control)
# protocol-details: Greenhouse herbicide tests on rice
# Format: in vivo
# assay-setup: PURSUIT, RAPTOR, CADRE, SCEPTER at all rates tested, ARSENAL 1 to 2×
reported-property: average seed set in two transgenic lines

Look over these answered cases.
>>> result_value("CCc1cnc(C2=NC(C)(C(C)C)C(=O)N2)c(C(=O)O)c1 (centres unmarked)")
"about 85%"
>>> result_value("CC(C)C1(C)N=C(c2nc3ccccc3cc2C(=O)O)NC1=O (centres unmarked)")
"about 85%"
>>> result_value("Cc1cnc(C2=NC(=O)C(C)(C(C)C)N2)c(C(=O)O)c1 (centres unmarked)")
"about 85%"
>>> result_value("COCc1cnc(C2=NC(C)(C(C)C)C(=O)N2)c(C(=O)O)c1 (centres unmarked)")
"about 85%"

Attention now turns to another entry.
Which value of average seed set in two transgenic lines has been reported for CC(C)C1(C)N=C(c2ncccc2C(=O)O)NC1=O (centres unmarked) in the records? about 85%

----------
# System: transgenic rice Line 26
# protocol-details: Response of rice plants to various herbicides, seed set in greenhouse
# Type: in vivo
# assay-setup: post-emergence, 2× rate, 1× g ai/ha: PURSUIT 62.5, CADRE 32, ARSENAL 24, RAPTOR 32, SCEPTER 125, ACCENT 35, CLASSIC 5, AC322,140 20, LONDAX 68
reported-property: Total No. of kernels/3 panicles
Kindly provide the number alone.

Param readout = Total No. of kernels/3 panicles; param system = transgenic rice Line 26; param query = COc1cc(OC)nc(NC(=O)NS(=O)(=O)Nc2ccccc2C(=O)C2CC2)n1 ; response: value 168

Query for transgenic rice Line 26: what Total No. of kernels/3 panicles does the record show for CC(C)C1(C)N=C(c2nc3ccccc3cc2C(=O)O)NC1=O (stereo not drawn) ? 135

Report Total No. of kernels/3 panicles for COC(=O)c1ccccc1CS(=O)(=O)NC(=O)Nc1nc(OC)cc(OC)n1 tested on transgenic rice Line 26. 156

Under transgenic rice Line 26: Total No. of kernels/3 panicles value of CC(C)C1(C)N=C(c2ncccc2C(=O)O)NC1=O (stereo not drawn) ? 170

Report Total No. of kernels/3 panicles for COc1cc(OC)nc(NC(=O)NS(=O)(=O)c2ncccc2C(=O)N(C)C)n1 tested on transgenic rice Line 26. 0

Requested read-out Total No. of kernels/3 panicles, target or system transgenic rice Line 26, entry Cc1cnc(C2=NC(=O)C(C)(C(C)C)N2)c(C(=O)O)c1 (stereo not drawn) 161

Report Total No. of kernels/3 panicles for CCc1cnc(C2=NC(C)(C(C)C)C(=O)N2)c(C(=O)O)c1 (stereo not drawn) tested on transgenic rice Line 26. 155

// fetch transgenic rice Line 26 Total No. of kernels/3 panicles for COCc1cnc(C2=NC(C)(C(C)C)C(=O)N2)c(C(=O)O)c1 (stereo not drawn) 193

Recall the recorded Total No. of kernels/3 panicles for CCOC(=O)c1ccccc1S(=O)(=O)NC(=O)Nc1nc(Cl)cc(OC)n1 with transgenic rice Line 26 and state it. 108

----------
Exercise: for every item that follows, state its recorded No. filled seeds/3 panicles.
# Test system: transgenic rice Line 26
# protocol-details: Response of rice plants to various herbicides, seed set in greenhouse
# Format: in vivo
# assay-setup: post-emergence, 6× rate, 1× g ai/ha: PURSUIT 62.5, CADRE 32, ARSENAL 24, RAPTOR 32, SCEPTER 125, ACCENT 35, CLASSIC 5, AC322,140 20, LONDAX 68
Output: the number by itself.

GET /values?readout=No. filled seeds/3 panicles&item= COc1cc(OC)nc(NC(=O)NS(=O)(=O)c2ncccc2C(=O)N(C)C)n1 0

Which No. filled seeds/3 panicles value belongs to COc1cc(OC)nc(NC(=O)NS(=O)(=O)Nc2ccccc2C(=O)C2CC2)n1 ? 134

Which measured No. filled seeds/3 panicles value corresponds to Cc1cnc(C2=NC(=O)C(C)(C(C)C)N2)c(C(=O)O)c1 (stereo not drawn) ? 131

Returns the measured No. filled seeds/3 panicles for the input compound. Input: CC(C)C1(C)N=C(c2ncccc2C(=O)O)NC1=O (stereo not drawn) 2

For the compound shown here, CCOC(=O)c1ccccc1S(=O)(=O)NC(=O)Nc1nc(Cl)cc(OC)n1 , give the reported No. filled seeds/3 panicles. 10

Report No. filled seeds/3 panicles for COCc1cnc(C2=NC(C)(C(C)C)C(=O)N2)c(C(=O)O)c1 (stereo not drawn) please. 136

Field request: No. filled seeds/3 panicles | item: COC(=O)c1ccccc1CS(=O)(=O)NC(=O)Nc1nc(OC)cc(OC)n1 127

What No. filled seeds/3 panicles value was documented for this compound, CCc1cnc(C2=NC(C)(C(C)C)C(=O)N2)c(C(=O)O)c1 (stereo not drawn) ? 107

Can you look up the measured No. filled seeds/3 panicles of CC(C)C1(C)N=C(c2nc3ccccc3cc2C(=O)O)NC1=O (stereo not drawn) for me? 86

----------
# Test system: transgenic rice Line 26
# protocol-details: Response of rice plants to various herbicides, seed set in greenhouse
# Assay type: in vivo
# assay-setup: post-emergence, 4× rate, 1× g ai/ha: PURSUIT 62.5, CADRE 32, ARSENAL 24, RAPTOR 32, SCEPTER 125, ACCENT 35, CLASSIC 5, AC322,140 20, LONDAX 68
Sorting guide: entries reporting No. filled seeds/3 panicles beneath 100 go in the Met pile, the rest go in the Not met pile.

Is 100 strictly greater than the compound's reported No. filled seeds/3 panicles? compound: Cc1cnc(C2=NC(=O)C(C)(C(C)C)N2)c(C(=O)O)c1 (stereo not drawn) Not met

# strict comparison: is reported No. filled seeds/3 panicles < 100? input = CCOC(=O)c1ccccc1S(=O)(=O)NC(=O)Nc1nc(Cl)cc(OC)n1 Met

Hi there! Is No. filled seeds/3 panicles for CC(C)C1(C)N=C(c2ncccc2C(=O)O)NC1=O (stereo not drawn) below 100, do you know? Met

Take the compound CC(C)C1(C)N=C(c2nc3ccccc3cc2C(=O)O)NC1=O (stereo not drawn) and say whether its No. filled seeds/3 panicles is less than 100. Not met

Identify whether the compound COCc1cnc(C2=NC(C)(C(C)C)C(=O)N2)c(C(=O)O)c1 (stereo not drawn) records No. filled seeds/3 panicles below 100. Not met

Record COc1cc(OC)nc(NC(=O)NS(=O)(=O)Nc2ccccc2C(=O)C2CC2)n1 : is its No. filled seeds/3 panicles strictly below 100? Not met

Is No. filled seeds/3 panicles of COc1cc(OC)nc(NC(=O)NS(=O)(=O)c2ncccc2C(=O)N(C)C)n1 strictly below 100? Met

Check if No. filled seeds/3 panicles falls below 100 for CCc1cnc(C2=NC(C)(C(C)C)C(=O)N2)c(C(=O)O)c1 (stereo not drawn) . Not met

Recorded values, source patent US6653529B2.
